Recorded measurements of superoxide response (% of plate), one per entry
Assay: superoxide lowering in aged yeast cells, pilot screen, validation compound set (AID 2706);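 note: yeast exposed to compound for one week at 30 degrees C before staining; 100% = mean of all compound wells on the same plate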
Details: S. cerevisiae aging, superoxide DHE fluorescence; at 10 µM; active compounds read low
Peptide text beside a SMILES is read from it.
The reply should contain only the number, in %.

Examples with answers:
Compound	Value units	superoxide response (% of plate)
CC(=O)C1=C(C)OC(N)=C(C(=O)OC(C)C)C12C(=O)Nc1ccccc12 (centres undefined)	%	103
CC12CCC3C(CC=C4CC(O)CCC43C)C1C/C(=C\c1cccc(F)c1)C2=O (centres undefined)	%	100
CC(C)C[C@H](NC(=O)[C@@H]1CCCN1C(=O)[C@@H](N)Cc1ccc(O)cc1)C(=O)NCC(N)=O (H-YPLG-NH2)	%	95.5
Cc1ccc(/C=C2/C(=O)NC(=O)N(C)C2=O)cc1	%	101
C[C@H](O)[C@H]1CC[C@H]2[C@@H]3CCC4=CC(=O)CC[C@]4(C)[C@H]3CC[C@]12C	%	106
COc1cc(/C=C2\C(=O)NC(=O)N(c3ccccc3)C2=O)c([N+](=O)[O-])cc1OC	%	102
CC(C)C(=O)Nc1ccc(S(=O)(=O)N2CC3CC(C2)c2cccc(=O)n2C3)cc1 (centres undefined)	%	106
NCC1(c2ccc3c(c2)OCCO3)CCCC1	%	101
CCOc1ccc(C2C(C#N)=C(N)Oc3c2c(=O)oc2ccccc32)cc1 (centres undefined)	%	103
COc1ccc(C(=O)N2CCCC2=O)cc1	%	94.5

**Q:** Sample O=c1c2ccccc2[se]n1-c1ccccc1 — what was its superoxide response (% of plate)?
**A:** 120

**Q:** Record: CCN(CC)CCOC(=O)C(O)(c1ccccc1)c1ccccc1
**A:** 90.4

**Q:** Record: C[C@H]1CCCC(=O)CCC/C=C/c2cc(O)cc(O)c2C(=O)O1
**A:** 102

----------
Target: Botulinum neurotoxin type A (Clostridium botulinum) (UniProt P0DPI0)
Sequence (P0DPI0 whole entry, looked up): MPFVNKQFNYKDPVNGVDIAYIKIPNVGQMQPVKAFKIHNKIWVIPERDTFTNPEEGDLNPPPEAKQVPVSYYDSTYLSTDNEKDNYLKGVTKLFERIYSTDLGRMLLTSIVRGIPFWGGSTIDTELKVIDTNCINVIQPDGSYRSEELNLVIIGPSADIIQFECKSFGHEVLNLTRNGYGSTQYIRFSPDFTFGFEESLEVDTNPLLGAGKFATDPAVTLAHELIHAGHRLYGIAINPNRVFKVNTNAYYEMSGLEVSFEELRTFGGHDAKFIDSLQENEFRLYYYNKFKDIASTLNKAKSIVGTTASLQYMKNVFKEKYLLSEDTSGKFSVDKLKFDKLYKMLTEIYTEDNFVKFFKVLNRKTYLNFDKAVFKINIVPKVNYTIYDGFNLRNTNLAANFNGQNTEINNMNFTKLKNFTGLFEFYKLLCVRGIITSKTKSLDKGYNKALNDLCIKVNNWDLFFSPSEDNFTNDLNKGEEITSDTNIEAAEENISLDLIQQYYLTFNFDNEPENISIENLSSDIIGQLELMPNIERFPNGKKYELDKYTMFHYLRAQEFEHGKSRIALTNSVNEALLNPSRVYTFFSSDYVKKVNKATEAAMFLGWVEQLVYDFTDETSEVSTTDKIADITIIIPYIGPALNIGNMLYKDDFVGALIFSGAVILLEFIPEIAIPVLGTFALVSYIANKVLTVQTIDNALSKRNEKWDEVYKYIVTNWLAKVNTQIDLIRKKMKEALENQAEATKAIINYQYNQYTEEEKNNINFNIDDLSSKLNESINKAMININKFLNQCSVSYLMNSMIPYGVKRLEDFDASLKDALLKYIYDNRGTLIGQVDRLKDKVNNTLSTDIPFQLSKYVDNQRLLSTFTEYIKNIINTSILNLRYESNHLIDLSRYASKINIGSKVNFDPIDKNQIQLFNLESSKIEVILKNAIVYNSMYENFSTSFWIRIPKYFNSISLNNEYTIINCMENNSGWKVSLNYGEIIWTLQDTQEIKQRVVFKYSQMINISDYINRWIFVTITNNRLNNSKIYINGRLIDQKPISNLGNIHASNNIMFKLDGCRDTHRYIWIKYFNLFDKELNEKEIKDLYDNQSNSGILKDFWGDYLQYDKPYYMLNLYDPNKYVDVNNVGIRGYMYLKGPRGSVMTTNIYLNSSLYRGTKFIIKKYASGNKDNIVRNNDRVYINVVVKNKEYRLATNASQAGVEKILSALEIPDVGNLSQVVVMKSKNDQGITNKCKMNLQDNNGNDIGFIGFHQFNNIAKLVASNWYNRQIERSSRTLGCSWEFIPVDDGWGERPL
Assay: BoNT/A light chain protease inhibitors, biochemical, multiplex microsphere flow cytometry, validation set (AID 588460)
Details: at 10 µM, active compounds read high
Attribute measured: inhibition (%)
The reply should contain only the number, in %.

Examples with answers:
Molecule	Attribute measured	Value units	Quantitative readout
OC[C@@H](O)[C@@H](O[C@H]1O[C@H](CO)[C@@H](O)[C@H](O)[C@H]1O)[C@H](O)[C@@H](O)CO	inhibition	%	0.6
CCCCN(CCCC)CCCOC(=O)c1ccc(N)cc1	inhibition	%	0.8

**Q:** Item CC(=O)OCC(=O)[C@@]1(O)CC[C@H]2[C@@H]3CCC4=CC(=O)C=C[C@]4(C)[C@H]3[C@@H](O)C[C@@]21C with Botulinum neurotoxin type A (Clostridium botulinum) (UniProt P0DPI0) - inhibition?
**A:** -1.8

**Q:** Record: COc1ccc2c(c1)[N+](C)(C)C(C)(C)C=C2C
**A:** 0.1

**Q:** Record: COc1ccccc1C(CCN(Cc1ccccc1)C(C)=O)c1ccco1 (stereo not given)
**A:** -1.3

**Q:** Record: N#C/C(=C\c1ccc(O)c(O)c1)C(=O)NCCCc1ccccc1
**A:** 1.2

----------
Target: Botulinum neurotoxin type A (Clostridium botulinum)
Test: BoNT/A light chain protease inhibitors, biochemical, multiplex microsphere flow cytometry, validation set (AID 588460)
Conditions: at 10 µM, active compounds read high
Attribute measured: inhibition (%)
The reply should contain only the number, in %.

Examples with answers:
Compound	inhibition (%)
Cc1cc(OC(C(=O)O)c2ccccc2)c2c(C)c(Cc3ccccc3)c(=O)oc2c1 (stereo not given)	-0.1
Cc1ccc2[nH]c3c(=O)n(CCCN4CCN(C)CC4)cnc3c2c1	-1
CCN(CC)C1=C(Cl)C(=O)C(Cl)C12OCCO2 (stereo not given)	0.6

**Q:** Sample CCOC(=O)C1C(=O)CC(C)(O)C(C(=O)OCC)C1/C=C/c1ccccc1 (stereo not given) — what was its inhibition?
**A:** 1

**Q:** Record: CCOC(=O)c1ccccc1NC(=O)c1ccc(F)cc1
**A:** -1

----------
Assay: modulators of MEP2-GFP levels in yeast, primary screen, S. cerevisiae, multiplex flow cytometry (AID 1867);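 note: median GFP channel fluorescence of barcode-gated MEP2-GFP cells measured by flow cytometry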
Details: S. cerevisiae MEP2-GFP strain, 3 h, at 10 µM, active compounds read high
Inconclusive results are not listed.
Attribute measured: GFP response vs DMSO (%)
The reply should contain only the number, in %.

Examples with answers:
Molecule	Attribute measured	Value units	Quantitative readout
CCNC(=O)[C@H]1O[C@@H](n2cnc3c(N)ncnc32)[C@H](O)[C@@H]1O	GFP response vs DMSO	%	115
OCc1cnc[nH]1	GFP response vs DMSO	%	109
O=C(CCCN1CCC2(CC1)C(=O)NCN2c1ccccc1)c1ccc(F)cc1	GFP response vs DMSO	%	95.7
c1ccc(Cn2ccnc2)cc1	GFP response vs DMSO	%	97.9
CCN1CC2(COC(=O)c3ccccc3N)CCC(OC)C34C5CC6C(OC)CC(O)(C5C6OC)C(O)(C(OC)C23)C14 (stereo not given)	GFP response vs DMSO	%	120
C[C@]12CCC(=O)C=C1CCC1C2CC[C@@]2(C)C1CC[C@@]2(O)CC#N (stereo not given in full)	GFP response vs DMSO	%	105

Okay, next one:
**Q:** Sample C[N+]1(C)[C@@H]2CC[C@H]1CC(OC(=O)C(CO)c1ccccc1)C2 (stereo not given in full) — what was its GFP response vs DMSO?
**A:** 96.3

----------
Assay: RPL19A-GFP modulators, yeast TOR pathway, confirmation, cell-based, S. cerevisiae, flow cytometry, cherry picks, mother/daughter gates (AID 2270)
Conditions: S. cerevisiae RPL19A-GFP strain, 3 h, at 10 µM, active compounds read low, 100 = same GFP as DMSO wells
Attribute measured: GFP response vs DMSO (%)
The reply should contain only the number, in %.

Molecule	GFP response vs DMSO (%)
O=C(O)c1nn(Cc2ccc(Cl)cc2Cl)c2ccccc12	101
O=C1NC(=O)N(c2ccccc2)C(=O)/C1=C/c1ccc(Sc2ccccc2)o1	99.7
Nc1ccc(N=Nc2ccccc2)cc1	98.4
CCN(CC)c1ccc(/C=C/[N+](=O)[O-])cc1	99.5
C[C@]12CC[C@@H](O)C[C@@H]1CC[C@@H]1[C@@H]2CC[C@]2(C)[C@@H](O)CC[C@@H]12	92.2

**Q:** Sample O=C1C(=O)c2ccccc2-c2ccccc21 — what was its GFP response vs DMSO?
**A:** 122

**Q:** Record: C#CCOc1cc(C2C3=C(COC3=O)Nc3cc4c(cc32)OCO4)ccc1OC (configuration not stated)
**A:** 102

**Q:** Record: CCC(C)N1C(=O)/C(=C\c2cnc(N(C)C)nc2)C(=O)NC1=S (configuration not stated)
**A:** 104

**Q:** Record: C[C@]12CCC(=O)C=C1CC[C@@H]1[C@@H]2CC[C@]2(C)C(=O)CC[C@@H]12
**A:** 96.8

----------
Biological target: Botulinum neurotoxin type A (Clostridium botulinum) (UniProt P0DPI0)
Assay: BoNT/A light chain protease inhibitors, biochemical, multiplex microsphere flow cytometry, validation set (AID 588460)
Details: at 10 µM, active compounds read high
Attribute measured: inhibition (%)
The reply should contain only the number, in %.

Compound	inhibition (%)
CC(C)(C)OC(=O)NCCC(=O)Oc1ccc2ccc(=O)oc2c1	-0.8

**Q:** Sample CCCCCCCCCC(=O)OCC(O)CO (centres undefined) — what was its inhibition?
**A:** -2

**Q:** Record: CCn1c(N2CCN(CC(=O)c3c(C)n(C)c4ccc(OC)cc34)CC2)nc2c1c(=O)[nH]c(=O)n2C
**A:** -0.8

**Q:** Record: OCCC1CN(Cc2nc(-c3ccccc3)cs2)CCN1Cc1ccc(F)cc1 (centres undefined)
**A:** 0.9

**Q:** Record: CCCN(CCC)C(=O)C(CCC(=O)O)NC(=O)c1ccccc1 (centres undefined)
**A:** -0.3

**Q:** Record: CC1(C)CC(=O)C(C2(O)C(=O)Nc3ccccc32)CO1 (centres undefined)
**A:** -1.6

**Q:** Record: C[C@H]1O[C@@H](O[C@H]2[C@@H](O)C[C@H](O[C@H]3[C@@H](O)C[C@H](O[C@H]4CC[C@@]5(C)[C@H](CC[C@@H]6[C@@H]5C[C@@H](O)[C@]5(C)[C@@H](C7=CC(=O)OC7)CC[C@]65O)C4)O[C@@H]3C)O[C@@H]2C)C[C@H](O)[C@@H]1O
**A:** -0.7

**Q:** Record: O=C(O)c1cc2cc(Cl)cc(Cl)c2oc1=O
**A:** 0.4

**Q:** Record: CSCCC1NC2(C(=O)Nc3ccc(Cl)cc32)[C@@H]2C(=O)N(C3CCCC3)C(=O)[C@H]12 (some centres undefined)
**A:** -1.4
